Measured pIC50 values are reported for all entries that follow.
- Tested on: Human primary T cells
- protocol details: IL-2 ELISA, human primary T cell, anti-CD3+CD28+ (whole cell assay)
- Type: cell-based
- conditions used: Homo sapiens, T-cell, 24 h, human primary T cells stimulated with anti-CD3 + anti-CD28, 24 hours
pIC50: −log10 of the molar value.

[
  {
    "molecule": "CN1C(C)(C)CC(Nc2nc(Nc3cc(F)c(OC4CCOCC4)c(F)c3)ncc2F)CC1(C)C",
    "study system": "Human primary T cells",
    "pIC50": "6.00 to 6.30"
  },
  {
    "molecule": "CN1C(C)(C)CC(Nc2nc(Nc3cc(F)c(OC4CCCN(S(C)(=O)=O)CC4)c(F)c3)ncc2F)CC1(C)C (centres unmarked)",
    "study system": "Human primary T cells",
    "pIC50": "6.00 to 6.30"
  },
  {
    "molecule": "CC1(C)CC(Nc2nc(Nc3cccc(-n4cncn4)c3)ncc2F)CC(C)(C)N1",
    "study system": "Human primary T cells",
    "pIC50": "6.00 to 6.30"
  },
  {
    "molecule": "CC(C)N1CCC(Oc2ccc(Nc3ncc(F)c(NC4CC(C)(C)N(C)C(C)(C)C4)n3)cc2Cl)CC1",
    "study system": "Human primary T cells",
    "pIC50": "> 6.60"
  },
  {
    "molecule": "Cc1cc(Nc2ncc(F)c(NC3CC(C)(C)NC(C)(C)C3)n2)cc(-c2nnnn2C)c1",
    "study system": "Human primary T cells",
    "pIC50": "6.30 to 6.60"
  },
  {
    "molecule": "CN1C(C)(C)CC(Nc2nc(Nc3ccc(OCCN4CCOCC4)c(OC(F)F)c3)ncc2F)CC1(C)C",
    "study system": "Human primary T cells",
    "pIC50": "6.00 to 6.30"
  },
  {
    "molecule": "Cc1nnnn1-c1cc(Nc2ncc(F)c(NC3CC(C)(C)N(C)C(C)(C)C3)n2)ccc1F",
    "study system": "Human primary T cells",
    "pIC50": "> 6.60"
  },
  {
    "molecule": "CC1(C)CC(Nc2nc(Nc3cc(F)c(OC4CCOCC4)c(F)c3)ncc2F)CC(C)(C)N1",
    "study system": "Human primary T cells",
    "pIC50": "6.00 to 6.30"
  }
]

---

Measured pIC50 values are reported for all entries that follow.
- Tested on: Human primary T cells
- protocol details: IL-2 ELISA, human primary T cell, anti-CD3+CD28+ (whole cell assay)
- Assay type: cell-based
- conditions used: Homo sapiens, T-cell, 24 h, human primary T cells stimulated with anti-CD3 + anti-CD28, 24 hours
pIC50: −log10 of the molar value.
measured quantity: pIC50

[
  {
    "molecule": "Cn1nnnc1-c1cc(Nc2ncc(F)c(NC3CC(C)(C)NC(C)(C)C3)n2)ccc1Cl",
    "measured quantity": "pIC50",
    "observed measurement": "> 6.60"
  },
  {
    "molecule": "CN1C(C)(C)CC(Nc2nc(Nc3ccc(Oc4cccnc4)c(C(F)(F)F)c3)ncc2F)CC1(C)C",
    "measured quantity": "pIC50",
    "observed measurement": "6.00 to 6.30"
  },
  {
    "molecule": "CC(C)N1CCC(Oc2ccc(Nc3ncc(F)c(NC4CC(C)(C)NC(C)(C)C4)n3)cc2C(F)(F)F)CC1",
    "measured quantity": "pIC50",
    "observed measurement": "6.30 to 6.60"
  },
  {
    "molecule": "CC(C)Oc1ccc(Nc2ncc(F)c(NC3CC(C)(C)N(C)C(C)(C)C3)n2)cc1N(C)C(C)C",
    "measured quantity": "pIC50",
    "observed measurement": "< 6.00"
  },
  {
    "molecule": "CC1(C)CC(Nc2nc(Nc3ccc4c(c3)OCC(CN3CCCCC3)O4)ncc2F)CC(C)(C)N1 (stereo not shown)",
    "measured quantity": "pIC50",
    "observed measurement": "< 6.00"
  },
  {
    "molecule": "CN1C(C)(C)CC(Nc2nc(Nc3ccc(OC4CCN(CC(N)=O)CC4)c(OC(F)F)c3)ncc2F)CC1(C)C",
    "measured quantity": "pIC50",
    "observed measurement": "6.30 to 6.60"
  },
  {
    "molecule": "CC(C)N1CCC(Oc2ccc(Nc3ncc(F)c(NC4CC(C)(C)N(CC(F)(F)F)C(C)(C)C4)n3)cc2OC(F)F)CC1",
    "measured quantity": "pIC50",
    "observed measurement": "< 6.00"
  },
  {
    "molecule": "CC1(C)CC(Nc2nc(Nc3cnc(OCCN4CCCC4=O)c(OC(F)F)c3)ncc2F)CC(C)(C)N1",
    "measured quantity": "pIC50",
    "observed measurement": "< 6.00"
  },
  {
    "molecule": "CC(C)Oc1ncc(Nc2ncc(F)c(NC3CC(C)(C)NC(C)(C)C3)n2)cc1-c1nnnn1C(C)C",
    "measured quantity": "pIC50",
    "observed measurement": "6.00 to 6.30"
  },
  {
    "molecule": "CN1C(C)(C)CC(Nc2nc(Nc3ccc(OC(C)(C)CCN4CCCC4)c(F)c3)ncc2F)CC1(C)C",
    "measured quantity": "pIC50",
    "observed measurement": "6.00 to 6.30"
  },
  {
    "molecule": "CC1(C)CC(Nc2nc(Nc3cc(F)cc(OCCn4cncn4)c3)ncc2F)CC(C)(C)N1",
    "measured quantity": "pIC50",
    "observed measurement": "< 6.00"
  },
  {
    "molecule": "Cn1nnnc1-c1cc(C#N)cc(Nc2ncc(F)c(NC3CC(C)(C)NC(C)(C)C3)n2)c1",
    "measured quantity": "pIC50",
    "observed measurement": "6.00 to 6.30"
  },
  {
    "molecule": "Cn1nnnc1-c1cc(Nc2ncc(F)c(NC3CC(C)(C)NC(C)(C)C3)n2)ccc1OC1CCOCC1",
    "measured quantity": "pIC50",
    "observed measurement": "< 6.00"
  },
  {
    "molecule": "Cc1ccc(Nc2ncc(F)c(NC3CC(C)(C)N(C)C(C)(C)C3)n2)cc1-c1nnnn1C",
    "measured quantity": "pIC50",
    "observed measurement": "> 6.60"
  },
  {
    "molecule": "CN1C(C)(C)CC(Nc2nc(Nc3cccc(-c4nnnn4CCN4CCOCC4)c3)ncc2F)CC1(C)C",
    "measured quantity": "pIC50",
    "observed measurement": "6.00 to 6.30"
  },
  {
    "molecule": "CC(=O)N1CCCC(Oc2ccc(Nc3ncc(F)c(NC4CC(C)(C)N(C)C(C)(C)C4)n3)cc2OC(F)F)CC1 (stereo not shown)",
    "measured quantity": "pIC50",
    "observed measurement": "> 6.60"
  }
]
